Target: T1, X11β PDZ-GST fusion protein (Rattus norvegicus (Rat), UniProt O35431 560-745)
T1 construct: Order of GST and PDZ part and limits not seen in the excerpts
T1 chain: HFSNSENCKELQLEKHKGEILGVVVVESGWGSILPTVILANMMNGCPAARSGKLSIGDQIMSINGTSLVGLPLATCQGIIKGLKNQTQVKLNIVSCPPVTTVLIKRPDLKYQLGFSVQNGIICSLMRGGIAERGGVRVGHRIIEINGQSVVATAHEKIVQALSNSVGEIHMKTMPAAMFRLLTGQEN
Assay: A/G assays
Ends that are not written are not given here. * marks the point of attachment. Biotin = O=C1N[C@H]2[C@H](CS[C@H]2CCCCC(=O)*)N1
endpoint-name: binding result

INSERT INTO results (binder, result) VALUES
  ('Biotin-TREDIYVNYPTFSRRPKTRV [DNAM-1 C-terminal peptide AA22L, biotinylated]', 'no binding'),
  ('Biotin-SFPPCGHRENVPGQSLVSFV (Marked (S), sticky; also called Spectrin beta (S); Spectrin β) [Spectrin (beta) C-terminal peptide AA32L, biotinylated]', 'no binding'),
  ('Biotin-QGDPALQDAGDSSRKEYFI (also called GC) [Glycophorin C C-terminal peptide AA37L, biotinylated]', 'no binding'),
  ('Biotin-HKAEIHAQPSDKERLTSDA (also called CD49F (Aform, alpha6)) [CD49F C-terminal peptide AA12L, biotinylated]', 'no binding'),
  ('Biotin-AWDDSARAAGGQGLHVTAL [LPAP C-terminal peptide AA30L, biotinylated]', 'no binding'),
  ('Biotin-QEEDGCSCRFPEEEEGGCEL (cysteine pairing not given here, Marked (S), sticky peptide with high background; also called CDw137 (4-1BB ILA) (S)) [CDw137 (4-1BB ILA) C-terminal peptide AA21L]', 'no binding'),
  ('Biotin-SPQPDSTDNDDYDDISAA [CD6 C-terminal peptide AA6L, biotinylated]', 'no binding');
